Listed here: items and their measured EC50.
- test method notes: Tested in vitro for the antiviral activity in PBM cells infected with HIV-1
- Type: functional, cell-based
- condition label: Homo sapiens, PBMC
Please give a number only; it is taken to be in µM.

[[record]]
molecule = "Cc1cn([C@H]2C=C[C@@H](CO)O2)c(=O)[nH]c1=O"
attribute_measured = "EC50"
unit_name = "µM"
reported = 0.05


Attention now turns to another entry.
response.value for CC(=O)SCCOP(=O)(OCCSC(C)=O)OCC1C=CC(n2cc(C)c(=O)[nH]c2=O)O1 (configuration not stated) (field: EC50) = 0.007
